test system: SF-295 CNS; experiment: NCI tumour cell line growth inhibition, 48 h; in the data active means GI50 below about 0.43 µM; inactive means the rest
Possible outcomes: active, inactive

>>> assigned_label("COc1c(CNC(=O)CCl)cc2[nH]c(C)cc2c1CNC(=O)CCl")
"inactive"
>>> assigned_label("COc1ccc(C2=C(c3cc(OC)c(OC)c(OC)c3)C(=O)CC2)cc1")
"active"
>>> assigned_label("C/C(=C\\CCc1ccoc1)CC/C=C(\\C)CCCN1CCC(CO)CC1")
"inactive"
>>> assigned_label("CC1=C([Se]CC(OC(=O)[C@@H](CO)NC(=O)OC(C)(C)C)C(=O)NC(C)(C)C)C(=O)c2ccccc2C1=O (some centres not stated)")
"active"
>>> assigned_label("COc1ccc(-c2cc(/C=C3\\C(=O)Nc4ccc(OC)cc43)[nH]n2)cc1")
"inactive"
>>> assigned_label("COc1ccc(Cc2cnc(NC(=O)c3sc4ccccc4c3Cl)s2)cc1")
"active"
>>> assigned_label("O=C1C(Cl)=C(Nc2cccc(O)c2)C(=O)N1c1ccc(Cl)c(Cl)c1")
"inactive"
